Hello, the source for this data is patent US20240246960A1, in case you need it.

- SYSTEM NAME: DNA-PK phosphorylation at Serine 2056 (Homo sapiens, UniProt P78527)
- Construct: host or cells: FaDu
- TEST: Cellular Assay for Inhibition of DNA-PK Phosphorylation at Serine 2056 (FaDu cells, neocarzinostatin, sandwich ELISA)
- Assay type: cell-based
- CONDITION NOTES: Table 1
pIC50: −log10 of the molar value.
PARAMETER MEASURED: pIC50

These recorded examples may help you get a feel for the data.
{"COMPOUND": "Cc1cnn([C@H]2CC[C@@H](Oc3nc(N4CCOCC4)cc4ncccc34)CC2)c1C(F)(F)F [Compound 17f]", "EXPERIMENTAL VALUE": "4.52 to 5.00"}
{"COMPOUND": "Cn1cnc(N[C@H]2CC[C@@H](Oc3nc(N4CCOCC4)cc4ncccc34)CC2)n1", "EXPERIMENTAL VALUE": "6.00 to 7.00"}
{"COMPOUND": "c1cnc2cc(N3CCOCC3)nc(O[C@H]3CC[C@@H](Nc4ncc5sccc5n4)CC3)c2c1", "EXPERIMENTAL VALUE": "6.00 to 7.00"}
{"COMPOUND": "COc1ccnc(N[C@H]2CC[C@@H](Oc3nc(N4CCOCC4)cc4ncccc34)CC2)n1", "EXPERIMENTAL VALUE": "6.00 to 7.00"}
{"COMPOUND": "FC(F)(F)c1cncn1[C@H]1CC[C@@H](Oc2nc(N3CCOCC3)cc3ncccc23)CC1 [Compound 17j]", "EXPERIMENTAL VALUE": "6.00 to 7.00"}

Lab note: each compound below needs its pIC50 filled in.
1. O=C(N[C@H]1CC[C@@H](Oc2nc(N3CCOCC3)cc3ncccc23)CC1)c1cccnc1
2. O=C(N[C@H]1CC[C@@H](Oc2nc(N3CCOCC3)cc3ncccc23)CC1)N1CCOCC1
3. Cc1nn([C@H]2CC[C@@H](Oc3nc(N4CCOCC4)cc4ncccc34)CC2)cc1C(F)(F)F [Compound 17g]

output:
> 7.00
6.00 to 7.00
5.00 to 6.00

* * *

Give measured pIC50 for each item. Keep answers brief.
- SYSTEM NAME: DNA-PK phosphorylation at Serine 2056 (Homo sapiens)
- Construct: host or cells: FaDu
- TEST: Cellular Assay for Inhibition of DNA-PK Phosphorylation at Serine 2056 (FaDu cells, neocarzinostatin, sandwich ELISA)
- Assay type: cell-based
- CONDITION NOTES: Table 1
pIC50: −log10 of the molar value.

These recorded examples may help you get a feel for the data.
{"COMPOUND": "COc1ccc(N[C@H]2CC[C@@H](Oc3nc(N4CCOCC4)cc4ncccc34)CC2)nn1", "EXPERIMENTAL VALUE": "> 7.00"}
{"COMPOUND": "c1cnc2cc(N3CCOCC3)nc(O[C@H]3CC[C@@H](Nc4ccc5nccn5n4)CC3)c2c1", "EXPERIMENTAL VALUE": "6.00 to 7.00"}

Lab note: each compound below needs its pIC50 filled in.
1. c1cnc2cc(N3CCOCC3)nc(O[C@H]3CC[C@@H](Nc4cnccn4)CC3)c2c1
2. c1cnc2cc(N3CCOCC3)nc(O[C@H]3CC[C@@H](Nc4ncnc5ccsc45)CC3)c2c1
3. c1cnc2cc(N3CCOCC3)nc(O[C@H]3CC[C@@H](Nc4ccncc4)CC3)c2c1
4. c1cnc2cc(N3CCOCC3)nc(O[C@H]3CC[C@@H](Nc4ncnc5ccoc45)CC3)c2c1 [Compound 80a]
5. c1ccc(CN[C@H]2CC[C@@H](Oc3nc(N4CCOCC4)cc4ncccc34)CC2)cc1

output:
6.00 to 7.00
> 7.00
6.00 to 7.00
6.00 to 7.00
4.52 to 5.00

Lab note: each compound below needs its pIC50 filled in.
1. Cc1ccnc(N[C@H]2CC[C@@H](Oc3nc(N4CCOCC4)cc4ncccc34)CC2)n1
2. Fc1cnc(N[C@H]2CC[C@@H](Oc3nc(N4CCOCC4)cc4ncccc34)CC2)nc1
3. O=C(O)c1cnc(N[C@H]2CC[C@@H](Oc3nc(N4CCOCC4)cc4ncccc34)CC2)nc1
4. CN(c1cnc2cc(N3CCOCC3)nc(O[C@H]3CC[C@@H](Nc4ncccn4)CC3)c2c1)S(C)(=O)=O
5. O=C(N[C@H]1CC[C@@H](Oc2nc(N3CCOCC3)cc3ncccc23)CC1)c1ccc(C(F)(F)F)o1

output:
["> 7.00", "6.00 to 7.00", "5.00 to 6.00", "6.00 to 7.00", "6.00 to 7.00"]

Lab note: each compound below needs its pIC50 filled in.
1. N#Cc1cnc2cc(N3CCOCC3)nc(O[C@H]3CC[C@@H](Nc4ncccn4)CC3)c2c1 [Compound 200a]
2. c1ccc(N[C@H]2CC[C@@H](Oc3nc(N4CCOCC4)cc4ncccc34)CC2)nc1
3. O=C(N[C@H]1CC[C@@H](Oc2nc(N3CCOCC3)cc3ncccc23)CC1)c1ccnnc1
4. COc1cnc(N[C@H]2CC[C@@H](Oc3nc(N4CCOCC4)cc4ncc(I)cc34)CC2)nc1

output:
["6.00 to 7.00", "6.00 to 7.00", "> 7.00", "4.52 to 5.00"]
